Test: chemical genetic growth profiling, strain panel (AID 1159580);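 also: tested at 20 µM; growth read once vehicle control cultures reached saturation at 30 °C; 1 = growth at the plate median or of vehicle wells; lower values mean less growth of the strain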
Details: S. cerevisiae deletion strains, growth OD, locus YHR030C, strain SLT2
The campaign covered roughly 5,500 compounds. About 2,000 (36%) were called active. Not shown: some 18% with an inconclusive outcome. Rule as the data show it: active = normalized growth mostly below about 0.91 (no sharp cut-off); inconclusive = no clear call, values can overlap the other calls; inactive = mostly above about 0.92. Some of the results follow.
Select the correct class. Options are 1 (active), -1 (inactive) and nothing else.

- compound: "CC(C)(C)c1ccc(C(O)CCCN2CCC(C(O)(c3ccccc3)c3ccccc3)CC2)cc1 (stereo unspecified)"
  qualitative_label: -1
- compound: "CSc1cc(-c2ccncc2)nc(-c2cccs2)c1"
  qualitative_label: -1
- compound: "OC(CNCCc1cccs1)COc1ccccc1 (stereo unspecified)"
  qualitative_label: -1
- compound: "O=C(NCCSCc1cccc(C(F)(F)F)c1)Nc1cccc(C(F)(F)F)c1"
  qualitative_label: -1

Exercise: Assay result, entry O=C(NCCSCc1ccc(Cl)cc1)c1ccc(Cl)cc1 — outcome?
Solution: 1

Exercise: Assay result, entry CC(=O)c1sc(SCCS(=O)(=O)c2ccc(C)cc2)c2c1CC(C)(C)CC2=O — outcome?
Solution: 1

Exercise: Assay result, entry CC[N+](CC)(CC(=O)Nc1c(C)cccc1C)Cc1ccccc1 — outcome?
Solution: -1
